The reported numbers originate from patent US20220411492A1.

Target: T1, human Claudin 18.2 (hCLDN18.2) (human, UniProt P56856-2 1-261)
T1 construct: whole, on cells; also called CLDN18A2; claudin 18 splice variant 2
Assay: FACS, PDX-hCLDN18.2 gastric cancer tumor tissue-derived cells
So I've got a bunch of binders here, and I need their Mean maximum fluorescence intensity (Top MFI) values.
Param answer (str): number followed by unit.

# example entries with known answers
1) ch-37G8 (antibody, V domains shown, also called chimeric antibody of clone 37G8) VH: EVQLQQSGPVLVKPGASVKMSCKASGYTFSDYHMNWVKQSHGKSLEWVGLINPYNGGIRFNQKFKGKATLTVDKSSSTAYMELNSLTSEDSAVYYCATIYYGNSFAYWGQGTLVTVSA VL: DIVMTQSPSSLTVTAGEKVTLTCKSGQSLLNSGNQKNYLTWYQQKPGQPPKLLIYWASTRESGVPDRFTGSGSGTDFTLTISGVQAEDLAVYYCQNDYFYPYTFGGGTKLEIK ... 14400 MFI
2) ch-48H1 (antibody, V domains shown, also called chimeric antibody of clone 48H1) VH: QVQLQQPGAELVKPGTSVKLSCKASGYIFTNYWTHWMKQRPGQGLEWIGMIHPNSGSSNYNEKFKSKATLTVDRSSSTVYMQLRRLTSEDSAVYYCTRIHYGNSMDYWGQGTSVTVSS VL: DIVMTQSPSSLTVTAGEKVTMSCKSSQSLFNSGNQKNYLTWYQQKPGQPPKLLIYWASTWESGVPDRFTGSGSGTDFTLTISSVQAEDLAVYYCQNAYSYPFTFGSGTKLEIK ... 13600 MFI
3) ch-40G7 (antibody, V domains shown, also called chimeric antibody of clone 40G7) VH: QVQLQQPGTELVKPGASVKLSCKASGYTFTNYWMHWVKQRPGHGLEWIGMIHPNSYSTNYNEKFRSKATLTVDKSSSTAYMQLSSLTSEDSAVYYCTRIYYGNAMDYWGQGTSVTVSS VL: DIVMTQSPSSLTVTAGERVTMSCKSSQSLFNSGNQKNYLTWYHQKPGQPPKLLIYWAFTRESGVPDRFTGSGSGTDFTLTIRSVQAEDLAVYYCQNDYSYPFTFGSGTKLEIK ... 10100 MFI

Give Mean maximum fluorescence intensity (Top MFI) for each of the items listed below.
1. ch-251H11 (antibody, V domains shown, also called chimeric antibody of clone 251H11) VH: QVQLKQSGAELVRPGASVKLSCKTSGYTFTTFWIHWIKQRSGQGLEWIAKIYPGTGYTYYNEKFKGKATLTADKSSSAAYMQLSSLKSEDSAVYFCAREGYGKGNAVDFWGQGSSVTVSS VL: DIVMTQSPSSLTVTAGEKVTMSCKSSQSLFNSGNQKNYLTWYQQKPGQPPKLLIYWASTRESGVPDRFTGSGSGTDFTLTIDSVQAEDLAVYYCQNDYTYPSTFGGGTNLEIK
2. ch-229C9 (antibody, V domains shown, also called chimeric antibody of clone 229C9) VH: DVQLQESGPDLVKPSQSLSLICTVTGYSITSGYSWHWIRQFPGNKLEWMGYIHYSGGTNYNPSLKSRISFTRDTSKNQFFLQLNSVTTEDTATYYCARLERGNSFAYWGQGTLVTVSA VL: DIVMTQSPSSLTVTAGEKVTMSCKSTQSLLNSGNQKNYLTWYQQKPGQPPKLLIYWASTRESGVPDRFTGSGSGTDFTLTISSLQAEDLAVYYCQNDYFYPFTFGSGTKLEIK
3. ch-252F11 (antibody, V domains shown, also called chimeric antibody of clone 252F11) VH: EIQLVESGGGLVRPGGSLKLSCAASGFSFKNYVMSWVRQSPERRLEWVAEIRTGGDYTYYVDTVTGRFTISRDNAKNTLYLEMTSLRSEDTATYYCARVGYGNSLDYWGQGTTLTVSS VL: DIVMTQSPSSLTVTAGEKVTMSCKSSQSLLNSGNQKNYLTWYQQKPGQPPKLLIYWASTRESGVPDRFTGSGSGTDFTLTISSVQAEDLAVYSCQNNYFYPLTFGAGTELELK
4. ch-239E9 (antibody, V domains shown, also called chimeric antibody of clone 239E9) VH: QVQLQQSGPELVRPGVSVKISCKGSSYTFTDYTMHWVKQSHAKSLEWIGFIGVYYGNTNYNQKFKGKATMTVDKSSSTAYMELARLTSEDSAVYYCARIGRGNAMDYWGQGTSVTVSS VL: DIVMTQSPSSLTVTAGEKVTMSCKSSQSLLNSGNQKNYLTWYQQKPGQPPKLLIYWASTRESGVPDRFTGSGSGTDFTLTISSVQAEDLAVYNCQNAYSYPFTFGSGTKLEIK
5. ch-126A11 (antibody, V domains shown, also called chimeric antibody of clone 126A11) VH: QVQLKESGPGLVAPSQSLSITCTVSEFSLTTYGVSWVRQPPGKGLEWLGVIWGDGSTNYHSALISRLSISKDTSKSQVFLKLNSLQTDDTATYYCAKPGLRNAMDYWGQGTSVTVSS VL: DIVMTQSPSSLSVSAGEKVTMSCKSSQSLLNSGNQKNYLAWYQQKPGQPPKLLIYGASTRESGVPDRFTGSGSGTDFTLTISSVQAEDLAVYYCQNDLIYPLTFGAGTKLELK
6. ch-241F7 (antibody, V domains shown, also called chimeric antibody of clone 241F7) VH: EVQLQQSGPELEKPGASVKISCKASGYSFTAYNMNWVRQRNGKSLEWIGNIDPYYGGTNYNQKFKGKATLTVDKSSSTAYMQLKSLTSEDSAVYFCATVYYGNSLIYWGQGTLVTVSA VL: DIVMTQSPSSLTVTAGEKVTMSCKSSQSLLNSGNQKNYLTWYQQKPGQPPKLLIYWASTRESGVPDRFTGTGSGTDFTLTISSVQAEDLAVYYCQNNYFYPLTFGAGTQLELK

Found:
["19900 MFI", "15700 MFI", "16500 MFI", "14600 MFI", "17100 MFI", "15200 MFI"]
